For each of the binders below, state its EC50 CreLuc hNPY2R 0.5% hP.
Tested on: T1, human neuropeptide Y2 receptor (human, UniProt P49146 1-381)
T1 sequence (looked up): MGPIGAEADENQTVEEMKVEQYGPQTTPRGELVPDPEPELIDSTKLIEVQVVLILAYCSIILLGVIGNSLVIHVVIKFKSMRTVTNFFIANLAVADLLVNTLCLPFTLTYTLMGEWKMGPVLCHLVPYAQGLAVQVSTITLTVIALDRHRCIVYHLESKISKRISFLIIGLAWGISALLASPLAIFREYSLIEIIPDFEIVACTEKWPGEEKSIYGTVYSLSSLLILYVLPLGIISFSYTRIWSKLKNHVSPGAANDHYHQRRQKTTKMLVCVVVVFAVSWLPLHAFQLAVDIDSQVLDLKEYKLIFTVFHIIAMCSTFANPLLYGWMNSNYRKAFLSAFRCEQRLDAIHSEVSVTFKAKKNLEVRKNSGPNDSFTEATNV
Procedure summary: cell-based or functional assay
Starred links: 1 amine or outer side, 2 acyl side, 3 side chain; linkers in the order of their positions; H or OH if unused. Non-standard residues stand in square brackets, D forms with d. Groups on a side chain read outwards from the residue. No end group written: not given here. *: point of attachment. C20 diacid = O=C(O)CCCCCCCCCCCCCCCCCCC(=O)*; C18 diacid = O=C(O)CCCCCCCCCCCCCCCCC(=O)*; γGlu = O=C(O)[C@H](CCC(=O)[*:2])N[*:1]; εLys = N[C@@H](CCCCN[*:1])C(=O)[*:2]; AEEA = NCCOCCOCC(=O)O; Aib = CC(C)(N)C(=O)O
The reply should be a number in nM, with the unit left off.

Entry Y[Aib]EGTFTSDYSI[Aib]LEKQAQ[Aib]AFVQWLIK([AEEA-AEEA-γGlu-γGlu-γGlu-C18 diacid])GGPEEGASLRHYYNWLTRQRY-NH2 [Compound 144] , EC50 CreLuc hNPY2R 0.5% hP reported as 15.8

Form: binder = YXEGTFTSDYSIXLEKQAQXAFVEWLIKGGPSSGASLXHYYNWLTRQRY (Aib at 2, 13, 20, 38; K28 side chain: C20DA-gGlu-gGlu-gGlu-gGlu-gGlu-gGlu-eLys; C-terminal NH2) [Compound 129] ; EC50 CreLuc hNPY2R 0.5% hP = 30.9

Y[Aib]EGTFTSDYSI[Aib]LEKQAQ[Aib]AFVQWLIK([εLys-Glu-Glu-Glu-Glu-Glu-C18 diacid])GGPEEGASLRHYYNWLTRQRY-NH2 [Compound 155] has a reported EC50 CreLuc hNPY2R 0.5% hP of 17

Entry under test: Y[Aib]EGTFTSDLSI[Aib]LEKQAQ[Aib]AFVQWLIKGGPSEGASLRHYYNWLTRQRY-NH2 (not fully specified (residue 28)) [Compound 113] . Its EC50 CreLuc hNPY2R 0.5% hP was 19.5

Per the records, this binder ( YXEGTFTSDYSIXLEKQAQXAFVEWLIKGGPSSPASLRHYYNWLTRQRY (Aib at 2, 13, 20; K28 side chain: C20DA-gGlu-gGlu-gGlu-gGlu-gGlu-OEG-OEG; C-terminal NH2) [Compound 120] ) has EC50 CreLuc hNPY2R 0.5% hP equal to 10.7

Query YXEGTFTSDYSIXLEKQAQXAFVQWLIKGGPSEGVSLRHYYNWLTRQRY (Aib at 2, 13, 20; K28 side chain: C20DA-gGlu-gGlu-gGlu-gGlu-gGlu-gGlu-eLys; C-terminal NH2) [Compound 114] yields EC50 CreLuc hNPY2R 0.5% hP of 7.73

What the record says about Y[Aib]EGTFTSDYSI[Aib]LEKQAQ[Aib]EFVQWLIK([AEEA-AEEA-γGlu-γGlu-γGlu-C18 diacid])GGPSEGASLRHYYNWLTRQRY-NH2 [Compound 160] : EC50 CreLuc hNPY2R 0.5% hP is 8.23

Record Y[Aib]EGTFTSDYSI[Aib]LEKQAQ[Aib]EFVEWLIK([εLys-γGlu-γGlu-γGlu-γGlu-γGlu-γGlu-γGlu-C20 diacid])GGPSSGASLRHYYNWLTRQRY-NH2 [Compound 88] , field EC50 CreLuc hNPY2R 0.5% hP: 20.4

So, Y[Aib]EGTFTSDYSI[Aib]LEKQAQ[Aib]AFVEWLIK([AEEA-AEEA-γGlu-γGlu-γGlu-γGlu-C18 diacid])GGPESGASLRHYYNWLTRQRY-NH2 [Compound 163] ? Its EC50 CreLuc hNPY2R 0.5% hP was 21.3

// recorded EC50 CreLuc hNPY2R 0.5% hP for YXEGTFTSDYSIXLEKQAQXAFVEWLIKGGPSSAASLRHYYNWLTRQRY (Aib at 2, 13, 20; K28 side chain: C20DA-gGlu-gGlu-gGlu-gGlu-gGlu-gGlu-eLys; C-terminal NH2) [Compound 98] : 15.1

Just so you know, measured EC50 CreLuc hNPY2R 0.5% hP for YXEGTFTSDYSIXLEKAAQXAFVEWLIKGGPSSGASLRHYYNWLTRQRY (Aib at 2, 13, 20; K28 side chain: C20DA-gGlu-gGlu-gGlu-gGlu-gGlu-gGlu-eLys; C-terminal NH2) [Compound 136] came out at 15.1

YXEGTFTSDYSIXLEKQAQXAFVEWLIKGGPSSGVSLRHYYNWLTRQRY (Aib at 2, 13, 20; K28 side chain: C20DA-gGlu-gGlu-gGlu-gGlu-gGlu-gGlu-eLys; C-terminal NH2) [Compound 96] has a reported EC50 CreLuc hNPY2R 0.5% hP of 15.5

What the record says about Y[Aib]EGTFTSDYSI[Aib]LEKQAQ[Aib]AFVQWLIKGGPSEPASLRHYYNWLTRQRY-NH2 (not fully specified (residue 28)) [Compound 101] : EC50 CreLuc hNPY2R 0.5% hP is 12.1

EC50 CreLuc hNPY2R 0.5% hP recorded for this binder, YXEGTFTSDYSIXLEKQAQXAFVEWLIKGGPSSGASVRHYYNWLTRQRY (Aib at 2, 13, 20; K28 side chain: C20DA-gGlu-gGlu-gGlu-gGlu-gGlu-gGlu-eLys; C-terminal NH2) [Compound 117] , is 6.81

Quick note, EC50 CreLuc hNPY2R 0.5% hP for YXEGTFTSDYSIXLEKQAQXAFVEWLIKGGPSEPESLRHYYNWLTRQRY (Aib at 2, 13, 20; K28 side chain: C20DA-gGlu-gGlu-gGlu-gGlu-gGlu-gGlu-eLys; C-terminal NH2) [Compound 122] landed at 26.3

Entry Y[Aib]EGTFTSDYSI[Aib]LEKQAQ[Aib]AFVQWLIK([AEEA-AEEA-γGlu-γGlu-Glu-γGlu-C20 diacid])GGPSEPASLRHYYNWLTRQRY-NH2 [Compound 165] ; EC50 CreLuc hNPY2R 0.5% hP = 8.91

Short answer for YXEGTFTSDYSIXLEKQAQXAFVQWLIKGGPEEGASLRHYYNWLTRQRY (Aib at 2, 13, 20; K28 side chain: C20DA-gGlu-gGlu-gGlu-gGlu-gGlu-gGlu-eLys; C-terminal NH2) [Compound 89] : EC50 CreLuc hNPY2R 0.5% hP was 14.8

Sure, the documented EC50 CreLuc hNPY2R 0.5% hP for YXEGTFTSDYSIXLEQQAQXAFVEWLIKGGPSSGASLRHYYNWLTRQRY (Aib at 2, 13, 20; K28 side chain: C20DA-gGlu-gGlu-gGlu-gGlu-Glu-gGlu-eLys; C-terminal NH2) [Compound 124] is 16.2

Entry Y[Aib]EGTFTSDYSI[Aib]LEEQAQ[Aib]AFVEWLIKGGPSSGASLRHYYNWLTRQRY-NH2 (not fully specified (residue 28)) [Compound 105] — recorded EC50 CreLuc hNPY2R 0.5% hP = 10.4

# EC50 CreLuc hNPY2R 0.5% hP of YXEGTFTSDYSIXLEAQAQXAFVEWLIKGGPSSGASLRHYYNWLTRQRY (Aib at 2, 13, 20; K28 side chain: C20DA-gGlu-gGlu-gGlu-gGlu-gGlu-gGlu-eLys; C-terminal NH2) [Compound 102] = 24.9

Data provenance: patent US20240247080A1
